src = PubChem BioAssay (NCI)

- System: SK-MEL-5 melanoma
- Protocol description: NCI tumour cell line growth inhibition, 48 h
Quantity measured: TGI

Worked examples follow.
[[record]]
compound = "CCN(CC)CCNc1ccc(C)c2sc3ccc(O)cc3c(=O)c12"
quantity_measured = "TGI"
experimental_result = "2.3 µM"

[[record]]
compound = "COCN1C(=O)[C@@H]2CCCN2C(=O)c2cc([N+](=O)[O-])ccc21"
quantity_measured = "TGI"
experimental_result = "> 100 µM"

[[record]]
compound = "Cc1cc(=Nc2ccc3c(c2)c(N)cc(C)[n+]3C)nc(N)n1C"
quantity_measured = "TGI"
experimental_result = "> 100 µM"

[[record]]
compound = "CN1C[C@@H]2CCCN2P1Oc1cccc2cccnc12 (stereo partly specified)"
quantity_measured = "TGI"
experimental_result = "> 100 µM"


**Query** Return TGI for the following compound: `C#Cc1ccc(NC(=O)c2ccc(/C=C/C(=O)c3nccn3C)cc2)cc1`
**Result** 1.01 µM

**Query** Return TGI for the following compound: `Cc1n[nH]c(=O)n1N=C(c1ccccc1)c1ccccc1`
**Result** > 100 µM

**Query** Return TGI for the following compound: `CC(=O)Oc1cccc2c1C(=O)c1c(OC(C)=O)cc(C)cc1C2=O`
**Result** > 100 µM

**Query** Return TGI for the following compound: O=C(O)CCC1(c2ccccc2)NC(=O)NC1=O (stereo unspecified)
**Result** > 100 µM

**Query** Return TGI for the following compound: `CN(O)C(=O)Cc1ccccc1`
**Result** > 100 µM

**Query** Return TGI for the following compound: CCCCCCCSCC(O)COC(c1ccccc1)(c1ccccc1)c1ccccc1 (stereo unspecified)
**Result** 47.9 µM

**Query** Return TGI for the following compound: `N#Cc1nc(-c2ccccc2)oc1S(=O)(=O)N1CCOCC1`
**Result** 17.3 µM

====

- Test system: LOX IMVI melanoma
- Protocol description: NCI tumour cell line growth inhibition, 48 h
TGI for assorted compounds

Worked examples follow.
[[record]]
compound = "COC(=O)C1=C(C)NC(C)=C([N+](=O)[O-])C1c1cccc(NO)c1 (stereo unspecified)"
experimental_result = "15.5 µM"

[[record]]
compound = "Clc1nc2c(-c3cccs3)ncnc2n1Cc1ccccc1"
experimental_result = "> 100 µM"


**Query** Return TGI for the following compound: CCCCCCCSCC(O)COC(c1ccccc1)(c1ccccc1)c1ccccc1 (stereo unspecified)
**Result** > 100 µM

**Query** Return TGI for the following compound: `N#Cc1c(C#N)c(SSc2c(C#N)c(C#N)c(N)n2-c2ccccc2)n(-c2ccccc2)c1N`
**Result** > 100 µM

**Query** Return TGI for the following compound: `N#Cc1c(NC(=S)NCc2ccccc2)sc2c1CCN(N1CCc3c(sc(NC(=S)NCc4ccccc4)c3C#N)C1)C2`
**Result** > 100 µM

**Query** Return TGI for the following compound: CC1OC(O)C(O)C(O)C1O (stereo unspecified)
**Result** > 100 µM

**Query** Return TGI for the following compound: `COc1ccc2c3c(c(OCCCN(C)C)nc2c1)-c1ccc(Cl)cc1C3=O`
**Result** 19.4 µM

**Query** Return TGI for the following compound: `CC#CC(=O)N1CCC[C@H]1c1nc(-c2ccc(C(=O)Nc3ccccn3)cc2)c2c(N)nccn12`
**Result** > 100 µM

**Query** Return TGI for the following compound: CC(C)C(N)(C(=O)O)c1ccccc1 (stereo unspecified)
**Result** > 100 µM

**Query** Return TGI for the following compound: `O=c1nc2cc(-c3ccccc3)[nH]c2nn1-c1c(Cl)cc(Cl)cc1Cl`
**Result** 50 µM

**Query** Return TGI for the following compound: `CC(C)(C)/C(O)=C\c1nc2cc(C(F)(F)F)ccc2[nH]c1=O`
**Result** > 100 µM

**Query** Return TGI for the following compound: `N#Cc1nc(-c2ccccc2)oc1S(=O)(=O)N1CCOCC1`
**Result** 2.91 µM

**Query** Return TGI for the following compound: CCC1(C)N=C(C(N)=O)c2ncn(N=C(C)C)c2N1 (stereo unspecified)
**Result** > 100 µM

**Query** Return TGI for the following compound: `N#Cc1c(-c2ccc(Cl)cc2)c(C#N)c(=O)n(NS(=O)(=O)c2ccccc2)c1-c1ccccc1`
**Result** > 25 µM

**Query** Return TGI for the following compound: `CNC(=O)CN1CC(=O)N(C)C(=O)C1`
**Result** > 100 µM

**Query** Return TGI for the following compound: COc1ccc(C(O)c2cc3c(N)c(C(=O)Nc4cccc(Br)c4)sc3nc2C)cc1 (stereo unspecified)
**Result** > 32.4 µM

**Query** Return TGI for the following compound: C=C(C)[C@H]1CC/C(C)=C/CCC(C)C(=O)CC/C(CO)=C\[C@@H]1O (stereo partly specified)
**Result** > 100 µM

**Query** Return TGI for the following compound: COc1cc(CC2c3cc(OC)c(OC)cc3CCN2C)c(Oc2cc3c(cc2OC)-c2c(OC)c(OC)c(OC)c4c2C(C3)N(C)CC4)cc1OC (stereo unspecified)
**Result** 22.6 µM

**Query** Return TGI for the following compound: `CC(C)(C)CC(C)(C)c1ccc(OCCOCCSC(=N)N)cc1`
**Result** 3.09 µM

**Query** Return TGI for the following compound: Cc1cccc2c1C(=O)C(C1OC(=O)c3ccccc31)C2 (stereo unspecified)
**Result** > 100 µM

**Query** Return TGI for the following compound: `CSCCCCCCCCCCOc1ccc(C=C2C(=C(C#N)C#N)c3ccccc3C2=C(C#N)C#N)cc1`
**Result** 61.7 µM
